Assay: Fluorescence properties of the CypH dyes at pH 5.0 and pH 7.5 (Table 2)
Type: physicochemical
Conditions: pH 7.5
Source text: The excitation and emission maxima of CypH-1 are 760 and 777 nm, respectively. The signal intensity ratio of pH 5 over pH 7.5 was about 10. […] The best compound from this group was CypH-5 whose fluorescence ratio of pH 5.0/pH 7.5 was increased to 22. […] The CypH analogs with other longer alkyl chains had much lower background fluorescence. […] Among them, CypH-11, which has a methyl isopropyl aniline and an isopropyl group on the indolinium ring, gave a 112-fold enhancement in fluorescence signal. […]
recorded-endpoint: FL Max (nm) pH 7.5
Answer format: number, then unit.

q: Which value of FL Max (nm) pH 7.5 has been reported for CCN(C)c1ccc(OC2=C(/C=C/C3=[N+](CC(C)C)c4ccccc4C3(C)C)CCC/C2=C\C=C2\N(CC(C)C)c3ccccc3C2(C)C)cc1.[I-] [CypH-20] in the records?
a: 789 nm

q: Likewise for CCN(C)c1ccc(OC2=C(/C=C/C3=[N+](CC)c4ccccc4C3(C)C)CCC/C2=C\C=C2\N(CC)c3ccccc3C2(C)C)cc1 [CypH-7] ?
a: 786 nm

q: // repeat for CCN(C)c1ccc(OC2=C(/C=C/C3=[N+](CCCS(=O)(=O)[O-])c4ccccc4C3(C)C)CCC/C2=C\C=C2\N(CCCS(=O)(=O)[O-])c3ccccc3C2(C)C)cc1.[Na+] [CypH-6] and report
a: 791 nm

q: Check CN(C)c1ccc(OC2=C(/C=C/C3=[N+](C)c4ccccc4C3(C)C)CCC/C2=C\C=C2\N(C)c3ccccc3C2(C)C)cc1.[Cl-] [CypH-1, reference compound] too.
a: 782 nm

Where do these numbers come from? They come from patent US20230302159A1.
